# ASSAYED_SYSTEM: ER (Homo sapiens)
# Construct: host or cells: T47D and MCF7 human breast cancer cells
# Sequence (P03372 1-595): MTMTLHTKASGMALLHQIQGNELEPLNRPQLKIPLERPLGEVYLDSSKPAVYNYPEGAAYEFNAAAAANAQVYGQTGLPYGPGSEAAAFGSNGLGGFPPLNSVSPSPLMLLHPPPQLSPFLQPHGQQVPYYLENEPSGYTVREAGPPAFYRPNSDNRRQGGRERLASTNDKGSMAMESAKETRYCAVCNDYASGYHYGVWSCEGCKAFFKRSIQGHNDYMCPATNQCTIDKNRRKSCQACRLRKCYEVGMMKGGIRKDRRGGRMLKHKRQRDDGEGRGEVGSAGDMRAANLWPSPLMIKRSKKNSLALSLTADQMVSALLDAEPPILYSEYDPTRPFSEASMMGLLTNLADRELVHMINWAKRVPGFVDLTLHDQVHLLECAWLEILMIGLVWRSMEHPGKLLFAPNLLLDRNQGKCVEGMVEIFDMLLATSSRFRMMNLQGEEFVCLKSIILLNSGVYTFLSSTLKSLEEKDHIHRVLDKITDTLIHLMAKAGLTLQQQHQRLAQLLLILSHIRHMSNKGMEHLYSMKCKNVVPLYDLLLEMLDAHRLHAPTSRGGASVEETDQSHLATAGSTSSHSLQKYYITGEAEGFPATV
# METHOD_NOTES: ER degradation activity, in-cell western blot analysis in T47D cells
# Format: cell-based
# COND: 16 hours, Table A does not say which cell line (T47D or MCF7), read-out: Potency (DC50)
Exercise: for every item that follows, state its recorded DC50.

input: Provide value of DC50 for this record tested with ER (Homo sapiens): O=C1CCC(N2C(=O)c3cc4c(cc3C2=O)CN(C2CCN(C(=O)C3(F)CCN(c5ccc([C@@H]6c7ccc(O)cc7CC[C@@H]6c6ccccc6)cc5)CC3)CC2)C4)C(=O)N1 (some centres unmarked) [E 241]
output: > 0.1 µM

input: Would you kindly repeat that for C[C@@H]1Cc2c([nH]c3ccccc23)[C@@H](c2c(F)cc(N3CC4(CCN4CC(=O)N4Cc5cc6c(cc5C4)C(=O)N(C4CCC(=O)NC4=O)C6)C3)cc2F)N1CC(F)F (some centres unmarked) [E 61] ?
output: > 0.1 µM

input: Now give it for C[C@@H]1Cc2c([nH]c3ccccc23)[C@@H](c2c(F)cc(-c3ccc(C(=O)N4CCC(N5Cc6cc7c(cc6C5)C(=O)N(C5CCC(=O)NC5=O)C7=O)CC4)cc3)cc2F)N1CC(F)F (some centres unmarked) [E 347] too.
output: < 0.01 µM

input: Ok, now C[C@@H]1Cc2c([nH]c3ccccc23)[C@@H](c2c(F)cc(C3CCN(C(=O)[C@H]4CC[C@@H](N5Cc6cc7c(cc6C5)C(=O)N(C5CCC(=O)NC5=O)C7=O)CC4)CC3)cc2F)N1CC(F)F (some centres unmarked) [E 392]
output: 0.01 to 0.1 µM

input: Please give the result for C[C@H]1CC2(CCN(c3ccc([C@@H]4c5ccc(O)cc5CC[C@@H]4c4ccccc4)cc3)CC2)CN1C(=O)CN1Cc2cc3c(cc2C1)C(=O)N(C1CCC(=O)NC1=O)C3=O (mixture of isomers) [E 142] too.
output: 0.01 to 0.1 µM

====

Give measured DC50 for each item. Keep answers brief.
# ASSAYED_SYSTEM: ER (Homo sapiens, UniProt P03372)
# Construct: host or cells: T47D and MCF7 human breast cancer cells
# METHOD_NOTES: ER degradation activity, in-cell western blot analysis in T47D cells
# Format: cell-based
# COND: compounds 16 hours, Table A does not say whether T47D or MCF7, read-out: Potency (DC50)

input: Would you kindly share the measured DC50 for O=C1CCC(N2C(=O)c3cc4c(cc3C2=O)CN(CC(=O)N2CCC3(CC2)CCN(c2ccc([C@H]5c6ccc(O)cc6CC[C@H]5c5ccccc5)cc2)CC3)C4)C(=O)N1 (stereo partly drawn) ?
output: > 0.1 µM

input: Can you handle O=C1CCC(N2C(=O)c3cc4c(cc3C2=O)CN(CC(=O)N2CCC3(CC2)CN(C(=O)c2ccc([C@@H]5c6ccc(O)cc6CC[C@@H]5c5ccccc5)cc2)C3)C4)C(=O)N1 (stereo partly drawn) next?
output: > 0.1 µM

input: How about this compound: O=C1CCC(N2C(=O)c3cc4c(cc3C2=O)CN(CC2CCC3(CC2)CCN(C(=O)c2ccc([C@@H]5c6ccc(O)cc6CC[C@@H]5c5ccccc5)cc2)CC3)C4)C(=O)N1 (stereo partly drawn)
output: > 0.1 µM

====

Answer each item with its documented DC50.
# ASSAYED_SYSTEM: ER (Homo sapiens)
# Construct: host or cells: T47D and MCF7 human breast cancer cells
# Sequence (P03372 1-595): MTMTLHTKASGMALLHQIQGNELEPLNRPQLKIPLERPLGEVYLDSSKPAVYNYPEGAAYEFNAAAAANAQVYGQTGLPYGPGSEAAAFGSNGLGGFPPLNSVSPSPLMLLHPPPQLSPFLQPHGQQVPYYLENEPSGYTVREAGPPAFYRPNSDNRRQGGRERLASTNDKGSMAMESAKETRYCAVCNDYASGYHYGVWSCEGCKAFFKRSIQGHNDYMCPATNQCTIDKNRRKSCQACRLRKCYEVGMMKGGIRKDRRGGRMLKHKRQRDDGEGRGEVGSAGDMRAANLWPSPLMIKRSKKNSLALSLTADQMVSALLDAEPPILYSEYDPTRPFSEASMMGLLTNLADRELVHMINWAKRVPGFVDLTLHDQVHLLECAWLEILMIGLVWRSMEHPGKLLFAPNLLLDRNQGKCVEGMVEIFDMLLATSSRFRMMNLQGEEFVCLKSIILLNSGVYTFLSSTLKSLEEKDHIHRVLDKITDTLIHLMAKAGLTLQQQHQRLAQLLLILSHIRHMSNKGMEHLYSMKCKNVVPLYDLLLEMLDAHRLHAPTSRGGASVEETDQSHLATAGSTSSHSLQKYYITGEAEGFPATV
# METHOD_NOTES: ER degradation activity, in-cell western blot analysis in T47D cells
# Format: cell-based
# COND: 16 hours, Table A does not say which cell line (T47D or MCF7), read-out: Potency (DC50)

input: May I ask what DC50 has been recorded for C[C@@H]1Cc2c([nH]c3ccccc23)[C@@H](c2c(F)cc(N3CCCC4(CCN(C(=O)CN5Cc6cc7c(cc6C5)C(=O)N(C5CCC(=O)NC5=O)C7)C4)C3)cc2F)N1CC(F)F (some centres unmarked) ?
output: 10 to 100 nM

input: Follow-up entry: C[C@@H]1Cc2c([nH]c3ccccc23)[C@@H](c2cnc(N3CCC(C(=O)N4CCC(N5Cc6cc7c(cc6C5)C(=O)N(C5CCC(=O)NC5=O)C7=O)CC4)CC3)nc2)N1CC(F)(F)F (some centres unmarked)
output: < 10 nM

input: Same lookup for O=C1CCC(N2C(=O)c3cc4c(cc3C2=O)CN(CC(=O)N2CCC3(CC2)CCN(c2ccc([C@@H]5c6ccc(O)cc6CC[C@@H]5c5ccccc5)cc2)CC3)C4)C(=O)N1 (mixture of isomers) [E 20] , please.
output: 10 to 100 nM

input: Next entry: C[C@@H]1Cc2c([nH]c3ccccc23)[C@@H](c2ccc(N3CCC4(CC3)CN(C(=O)CN3Cc5cc6c(cc5C3)C(=O)N(C3CCC(=O)NC3=O)C6=O)C4)cc2)N1CC(F)F (some centres unmarked)
output: 10 to 100 nM

input: What would you report for C[C@@H]1Cc2cc(O)ccc2[C@@H](c2c(F)cc(N3CCC4(CCN(C(=O)CN5Cc6cc7c(cc6C5)C(=O)N(C5CCC(=O)NC5=O)C7)C4)CC3)cc2F)N1CC(C)(F)F (some centres unmarked) ?
output: 10 to 100 nM

input: Another compound to check: O=C1CCC(N2C(=O)c3cc4c(cc3C2=O)CN(CC(=O)N2CCC(N3CC(Oc5ccc([C@@H]6c7ccc(O)cc7CC[C@@H]6c6ccccc6)cc5)C3)CC2)C4)C(=O)N1 (some centres unmarked)
output: 10 to 100 nM

input: Now this one: C[C@@H]1Cc2c([nH]c3ccccc23)[C@@H](c2c(F)cc(N3CC(F)(C(=O)N4CCC(CN5Cc6cc7c(cc6C5)C(=O)N(C5CCC(=O)NC5=O)C7=O)CC4)C3)cc2F)N1CC(F)F (some centres unmarked)
output: 10 to 100 nM

input: Next entry: O=C1CCC(N2Cc3cc4c(cc3C2=O)CN(C(=O)C2CCN(CC3CCN(c5ccc([C@@H]6c7ccc(O)cc7CC[C@@H]6c6ccccc6)cc5)CC3)CC2)C4)C(=O)N1 (some centres unmarked)
output: > 100 nM

input: Check O=C1CCC(N2C(=O)c3cc4c(cc3C2=O)CN(CC2CN(C(=O)C3CN(c5ccc([C@@H]6c7ccc(O)cc7CC[C@@H]6c6ccccc6)cc5)C3)C2)C4)C(=O)N1 (some centres unmarked) [E 200] too.
output: > 100 nM

input: Also, C[C@@H]1Cc2c([nH]c3ccccc23)[C@@H](c2c(F)cc(C3CCC(C(=O)N4CCC(N5Cc6cc7c(cc6C5)C(=O)N(C5CCC(=O)NC5=O)C7=O)CC4)CC3)cc2F)N1CC(F)F (some centres unmarked) please.
output: < 10 nM

input: // next record O=C1CCC(N2C(=O)c3cc4c(cc3C2=O)CN(CC(=O)N2CC3(CCN(c5ccc([C@@H]6c7ccc(O)cc7CC[C@@H]6c6ccccc6)cc5)CC3)C2)C4)C(=O)N1 (mixture of isomers) [E 9]
output: < 10 nM

input: Would you mind doing C[C@@H]1Cc2c([nH]c3ccccc23)[C@@H](c2cnc(N3CCC4(CC3)CN(C(=O)CN3Cc5cc6c(cc5C3)C(=O)N(C3CCC(=O)NC3=O)C6=O)C4)nc2)N1CC(F)F (some centres unmarked) as well?
output: < 10 nM

input: Next entry: O=C1CCC(N2C(=O)c3cc4c(cc3C2=O)CN(CC2CCN(C(=O)C3CN(c5ccc([C@@H]6c7ccc(O)cc7CC[C@@H]6c6ccccc6)cc5)C3)CC2)C4)C(=O)N1 (mixture of isomers) [E 156]
output: 10 to 100 nM

input: Another: O=C1CCC(N2C(=O)c3cc4c(cc3C2=O)CCN(C(=O)CN2CCC3(CC2)CCN(c2ccc([C@@H]5c6ccc(O)cc6CC[C@@H]5c5ccccc5)cc2)CC3)CC4)C(=O)N1 (some centres unmarked)
output: > 100 nM

input: Same for C[C@@H]1Cc2cc(O)ccc2[C@@H](c2c(F)cc(N3CCC4(CCN(CC(=O)N5Cc6cc7c(cc6C5)C(=O)N(C5CCC(=O)NC5=O)C7=O)C4)C3)cc2F)N1CC(C)(F)F (some centres unmarked)
output: > 100 nM

input: Moving on to C[C@@H]1Cc2c([nH]c3ccccc23)[C@@H](c2c(F)cc(N3CCC(CN4CCC(N5Cc6cc7c(cc6C5)C(=O)N(C5CCC(=O)NC5=O)C7=O)C4)CC3)cc2F)N1CC(F)F (some centres unmarked)
output: < 10 nM

input: And what about the compound C[C@H]1Cc2c([nH]c3ccccc23)[C@H](c2c(F)cc(N3CC4(CCN(C(=O)CN5Cc6cc7c(cc6C5)C(=O)N(C5CCC(=O)NC5=O)C7)CC4)C3)cc2F)N1CC(F)F (stereo in doubt) ?
output: < 10 nM

input: CN(C1CN(c2ccc([C@@H]3c4ccc(O)cc4CC[C@@H]3c3ccccc3)cc2)C1)[C@H]1CC[C@@H](C(=O)N2Cc3cc4c(cc3C2)C(=O)N(C2CCC(=O)NC2=O)C4)CC1 (single isomer, unassigned) , same question.
output: > 100 nM

input: Follow-up item: C[C@@H]1Cc2c([nH]c3ccccc23)[C@@H](c2c(F)cc(CN3CCC4(CCC(CN5Cc6cc7c(cc6C5)C(=O)N(C5CCC(=O)NC5=O)C7=O)CC4)CC3)cc2F)N1CC(F)F (some centres unmarked)
output: > 100 nM

input: What do you have for C[C@@H]1Cc2c([nH]c3ccccc23)[C@@H](c2cnc(N3CCC(C(=O)N4CCC(N5Cc6cc7c(cc6C5)C(=O)N(C5CCC(=O)NC5=O)C7=O)CC4)CC3)nc2)N1CC(F)F (some centres unmarked) ?
output: < 10 nM
